- Target Or Test System: UniProt:Q08345
- Method Description: HotSpot in vitro kinase radiometric assay
- Assay type: biochemical
- Parameters: purchased Reaction Biology (HotSpot contract assay)
- Condition Parameters: DDR1; 10uM; ATP 100 uM; Data 1, Data 2; read-out: % Enzyme Activity (relative to DMSO controls)
So I've got a bunch of compounds here, and I need their remaining activity at 10 µM values.
# unit: % | format: bare number

[Q] Tell me remaining activity at 10 µM reported for C[C@@H]1C[C@H]2O[C@@H]2/C=C\C=C\C(=O)Cc2c(Cl)c(O)cc(O)c2C(=O)O1
[A] 105

[Q] Tell me remaining activity at 10 µM reported for CC(C)c1cc(C(=O)N2Cc3ccc(CN4CCN(C)CC4)cc3C2)c(O)cc1O
[A] 106

[Q] Tell me remaining activity at 10 µM reported for CCc1cc(-c2[nH]nc(C)c2-c2ccc3c(c2)OCCO3)c(O)cc1O
[A] 20.1

[Q] Tell me remaining activity at 10 µM reported for COC1=C2C[C@@H](C)C[C@H](OC)[C@H](O)[C@@H](C)/C=C(\C)[C@H](OC(N)=O)[C@@H](OC)/C=C\C=C(/C)C(=O)NC(=CC1=O)C2=O
[A] 104

[Q] Tell me remaining activity at 10 µM reported for CCNC(=O)c1noc(-c2cc(Cl)c(O)cc2O)c1-c1ccc(OC)cc1
[A] 90.3

====

- Target Or Test System: 382 unique human kinases (Homo sapiens)
Endpoint Name: IC50 (nM)
# unit: nM | format: bare number

[Q] Recall the reported IC50 of O=C1Nc2ccc(I)cc2/C1=C/c1cc(Br)c(O)c(Br)c1 [GW5074] on 382 unique human kinases (Homo sapiens) and write it down.
[A] 14

====

- Target Or Test System: FGR (Homo sapiens)
- Construct: purchased Reaction Biology (HotSpot contract assay)
- Sequence (P09769 whole entry): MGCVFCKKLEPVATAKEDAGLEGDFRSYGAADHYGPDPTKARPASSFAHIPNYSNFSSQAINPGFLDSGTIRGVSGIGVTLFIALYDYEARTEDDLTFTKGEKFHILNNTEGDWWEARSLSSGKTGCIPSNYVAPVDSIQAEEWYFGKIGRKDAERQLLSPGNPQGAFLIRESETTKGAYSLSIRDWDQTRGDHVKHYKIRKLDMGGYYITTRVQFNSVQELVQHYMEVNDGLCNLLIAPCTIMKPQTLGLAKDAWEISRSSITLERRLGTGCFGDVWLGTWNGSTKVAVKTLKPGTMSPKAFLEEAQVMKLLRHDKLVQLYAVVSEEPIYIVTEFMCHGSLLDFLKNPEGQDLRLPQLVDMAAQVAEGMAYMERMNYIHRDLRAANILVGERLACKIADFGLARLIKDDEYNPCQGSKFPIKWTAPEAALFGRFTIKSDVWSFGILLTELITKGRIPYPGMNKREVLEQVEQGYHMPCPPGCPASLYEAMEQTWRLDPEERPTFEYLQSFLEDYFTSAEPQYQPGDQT
- Method Description: HotSpot in vitro kinase radiometric assay
- Format: biochemical
- Condition Parameters: FGR; 10uM; ATP 50 uM; Data 1, Data 2; read-out: % Enzyme Activity (relative to DMSO controls)
So I've got a bunch of compounds here, and I need their remaining activity at 10 µM values.
# unit: % | format: bare number

[Q] Tell me remaining activity at 10 µM reported for CC(C)c1cc(C(=O)N2Cc3ccc(CN4CCN(C)CC4)cc3C2)c(O)cc1O
[A] 102

[Q] Tell me remaining activity at 10 µM reported for COC1=C2C[C@@H](C)C[C@H](OC)[C@H](O)[C@@H](C)/C=C(\C)[C@H](OC(N)=O)[C@@H](OC)/C=C\C=C(/C)C(=O)NC(=CC1=O)C2=O
[A] 113

[Q] Tell me remaining activity at 10 µM reported for CCc1cc(-c2[nH]nc(C)c2-c2ccc3c(c2)OCCO3)c(O)cc1O
[A] 26.1

[Q] Tell me remaining activity at 10 µM reported for CCNC(=O)c1noc(-c2cc(Cl)c(O)cc2O)c1-c1ccc(OC)cc1
[A] 104

[Q] Tell me remaining activity at 10 µM reported for C[C@@H]1C[C@H]2O[C@@H]2/C=C\C=C\C(=O)Cc2c(Cl)c(O)cc(O)c2C(=O)O1
[A] 112

====

So I've got a bunch of compounds here, and I need their remaining activity at 10 µM values.
- Target Or Test System: PASK (Homo sapiens, UniProt Q96RG2)
- Construct: purchased Reaction Biology (HotSpot contract assay)
- Sequence (Q96RG2 whole entry): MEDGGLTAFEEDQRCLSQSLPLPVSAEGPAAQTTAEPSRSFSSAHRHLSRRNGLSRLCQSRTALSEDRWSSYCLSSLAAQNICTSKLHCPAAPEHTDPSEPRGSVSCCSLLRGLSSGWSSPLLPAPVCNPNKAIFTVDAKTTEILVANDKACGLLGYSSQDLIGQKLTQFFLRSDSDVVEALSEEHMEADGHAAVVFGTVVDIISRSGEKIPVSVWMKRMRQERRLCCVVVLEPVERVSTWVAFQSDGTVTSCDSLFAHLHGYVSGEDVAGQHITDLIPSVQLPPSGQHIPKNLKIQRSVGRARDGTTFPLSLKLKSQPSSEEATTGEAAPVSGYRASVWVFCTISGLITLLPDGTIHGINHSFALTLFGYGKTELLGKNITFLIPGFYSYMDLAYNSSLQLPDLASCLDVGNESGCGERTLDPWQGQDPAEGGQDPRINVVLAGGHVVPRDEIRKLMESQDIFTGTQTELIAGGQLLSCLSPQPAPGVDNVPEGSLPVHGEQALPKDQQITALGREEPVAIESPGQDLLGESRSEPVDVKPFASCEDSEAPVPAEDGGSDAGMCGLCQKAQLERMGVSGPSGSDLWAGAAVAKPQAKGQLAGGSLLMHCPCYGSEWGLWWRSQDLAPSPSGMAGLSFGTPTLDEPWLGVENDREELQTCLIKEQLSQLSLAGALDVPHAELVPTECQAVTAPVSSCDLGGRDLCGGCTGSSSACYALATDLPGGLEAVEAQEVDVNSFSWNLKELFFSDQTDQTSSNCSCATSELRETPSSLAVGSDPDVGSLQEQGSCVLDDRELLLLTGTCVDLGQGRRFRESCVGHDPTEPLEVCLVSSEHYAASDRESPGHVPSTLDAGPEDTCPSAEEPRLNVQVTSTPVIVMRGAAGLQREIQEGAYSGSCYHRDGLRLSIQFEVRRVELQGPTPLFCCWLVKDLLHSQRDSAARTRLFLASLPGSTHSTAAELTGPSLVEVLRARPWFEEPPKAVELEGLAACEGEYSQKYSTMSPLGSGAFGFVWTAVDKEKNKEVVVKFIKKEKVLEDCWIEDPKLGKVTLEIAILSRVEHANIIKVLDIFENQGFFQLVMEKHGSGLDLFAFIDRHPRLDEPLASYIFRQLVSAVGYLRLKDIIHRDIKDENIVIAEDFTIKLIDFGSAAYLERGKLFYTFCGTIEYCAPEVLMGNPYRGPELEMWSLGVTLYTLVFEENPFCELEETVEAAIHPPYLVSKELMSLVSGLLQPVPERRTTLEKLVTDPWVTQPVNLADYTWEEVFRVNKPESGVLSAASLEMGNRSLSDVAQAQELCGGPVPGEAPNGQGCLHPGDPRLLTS
- Method Description: HotSpot in vitro kinase radiometric assay
- Assay type: biochemical
- Condition Parameters: PASK; 10uM; ATP 50 uM; Data 1, Data 2; read-out: % Enzyme Activity (relative to DMSO controls)
- Excerpt: Accordingly, we selected five additional representative HSP90 inhibitors, at least one from each chemical class, including both synthetic inhibitors and natural products. Accordingly, we screened the hit compound and the two leads for kinase off-target inhibition using the 16-kinase panel and the same in vitro catalytic assay used previously. […]
# unit: % | format: bare number

[Q] Tell me remaining activity at 10 µM reported for CCNC(=O)c1noc(-c2cc(Cl)c(O)cc2O)c1-c1ccc(OC)cc1
[A] 109

[Q] Tell me remaining activity at 10 µM reported for CC(C)c1cc(C(=O)N2Cc3ccc(CN4CCN(C)CC4)cc3C2)c(O)cc1O
[A] 100

[Q] Tell me remaining activity at 10 µM reported for CCc1cc(-c2[nH]nc(C)c2-c2ccc3c(c2)OCCO3)c(O)cc1O
[A] 101

[Q] Tell me remaining activity at 10 µM reported for COC1=C2C[C@@H](C)C[C@H](OC)[C@H](O)[C@@H](C)/C=C(\C)[C@H](OC(N)=O)[C@@H](OC)/C=C\C=C(/C)C(=O)NC(=CC1=O)C2=O
[A] 106

[Q] Tell me remaining activity at 10 µM reported for C[C@@H]1C[C@H]2O[C@@H]2/C=C\C=C\C(=O)Cc2c(Cl)c(O)cc(O)c2C(=O)O1
[A] 94.4

====

So I've got a bunch of compounds here, and I need their remaining activity at 10 µM values.
- Target Or Test System: PEAK1 (Homo sapiens)
- Construct: purchased Reaction Biology (HotSpot contract assay)
- Sequence (Q9H792 whole entry): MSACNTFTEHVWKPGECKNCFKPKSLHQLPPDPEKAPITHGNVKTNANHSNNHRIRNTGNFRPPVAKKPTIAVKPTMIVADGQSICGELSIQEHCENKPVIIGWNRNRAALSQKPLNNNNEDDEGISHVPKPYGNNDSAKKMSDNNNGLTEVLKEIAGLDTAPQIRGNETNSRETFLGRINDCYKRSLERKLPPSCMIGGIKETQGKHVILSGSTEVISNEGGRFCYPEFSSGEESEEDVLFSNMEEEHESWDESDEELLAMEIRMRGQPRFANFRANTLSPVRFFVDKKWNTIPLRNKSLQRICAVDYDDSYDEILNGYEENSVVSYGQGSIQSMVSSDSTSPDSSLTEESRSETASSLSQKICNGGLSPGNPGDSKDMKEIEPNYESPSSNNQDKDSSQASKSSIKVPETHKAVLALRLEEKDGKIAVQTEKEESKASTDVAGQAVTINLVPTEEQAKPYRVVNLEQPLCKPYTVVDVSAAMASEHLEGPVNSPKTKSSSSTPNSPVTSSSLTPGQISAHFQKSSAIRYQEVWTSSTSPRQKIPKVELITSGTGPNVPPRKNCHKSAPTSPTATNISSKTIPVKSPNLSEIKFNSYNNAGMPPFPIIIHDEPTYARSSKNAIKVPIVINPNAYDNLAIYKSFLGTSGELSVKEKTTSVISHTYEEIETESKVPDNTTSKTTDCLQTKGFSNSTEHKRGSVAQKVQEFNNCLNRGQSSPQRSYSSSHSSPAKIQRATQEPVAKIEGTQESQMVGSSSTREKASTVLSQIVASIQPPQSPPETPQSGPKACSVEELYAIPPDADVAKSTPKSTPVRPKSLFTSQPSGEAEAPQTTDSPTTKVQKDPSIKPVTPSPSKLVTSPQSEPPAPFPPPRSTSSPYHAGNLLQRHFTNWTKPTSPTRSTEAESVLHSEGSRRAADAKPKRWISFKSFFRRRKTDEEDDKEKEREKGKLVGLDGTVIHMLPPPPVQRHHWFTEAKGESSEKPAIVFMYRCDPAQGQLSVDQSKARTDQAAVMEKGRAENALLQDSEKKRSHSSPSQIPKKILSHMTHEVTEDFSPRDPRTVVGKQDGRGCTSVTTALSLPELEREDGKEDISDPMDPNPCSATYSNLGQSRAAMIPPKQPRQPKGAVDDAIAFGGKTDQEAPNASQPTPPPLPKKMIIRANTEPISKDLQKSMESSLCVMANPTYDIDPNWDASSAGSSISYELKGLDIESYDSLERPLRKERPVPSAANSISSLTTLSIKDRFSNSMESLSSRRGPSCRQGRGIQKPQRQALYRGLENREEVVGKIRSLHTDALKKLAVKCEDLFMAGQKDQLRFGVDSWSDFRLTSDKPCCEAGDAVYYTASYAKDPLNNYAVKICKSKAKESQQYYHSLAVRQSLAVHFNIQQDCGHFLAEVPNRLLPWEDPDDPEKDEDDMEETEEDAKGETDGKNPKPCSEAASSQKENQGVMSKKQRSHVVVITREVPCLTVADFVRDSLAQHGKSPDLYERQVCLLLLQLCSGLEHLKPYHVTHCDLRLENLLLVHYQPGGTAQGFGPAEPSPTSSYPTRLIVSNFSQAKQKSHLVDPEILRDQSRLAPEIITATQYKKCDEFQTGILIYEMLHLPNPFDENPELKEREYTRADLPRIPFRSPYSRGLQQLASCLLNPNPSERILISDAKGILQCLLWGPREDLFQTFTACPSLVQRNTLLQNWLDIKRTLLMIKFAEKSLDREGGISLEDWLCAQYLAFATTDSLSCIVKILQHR
- Method Description: HotSpot in vitro kinase radiometric assay
- Type: biochemical
- Condition Parameters: PEAK1; 10uM; ATP 30 uM; Data 1, Data 2; read-out: % Enzyme Activity (relative to DMSO controls)
# unit: % | format: bare number

[Q] Tell me remaining activity at 10 µM reported for COC1=C2C[C@@H](C)C[C@H](OC)[C@H](O)[C@@H](C)/C=C(\C)[C@H](OC(N)=O)[C@@H](OC)/C=C\C=C(/C)C(=O)NC(=CC1=O)C2=O [Geldanamycin]
[A] 108

[Q] Tell me remaining activity at 10 µM reported for CCNC(=O)c1noc(-c2cc(Cl)c(O)cc2O)c1-c1ccc(OC)cc1 [VER-50589]
[A] 105

[Q] Tell me remaining activity at 10 µM reported for CC(C)c1cc(C(=O)N2Cc3ccc(CN4CCN(C)CC4)cc3C2)c(O)cc1O [Onalespib]
[A] 104

[Q] Tell me remaining activity at 10 µM reported for C[C@@H]1C[C@H]2O[C@@H]2/C=C\C=C\C(=O)Cc2c(Cl)c(O)cc(O)c2C(=O)O1 [Radicicol]
[A] 104

[Q] Tell me remaining activity at 10 µM reported for CCc1cc(-c2[nH]nc(C)c2-c2ccc3c(c2)OCCO3)c(O)cc1O [CCT018159]
[A] 16.4

====

- Target Or Test System: LYN B (Homo sapiens)
- Construct: purchased Reaction Biology (HotSpot contract assay)
- Sequence (P07948 1-491 isoform P07948-2): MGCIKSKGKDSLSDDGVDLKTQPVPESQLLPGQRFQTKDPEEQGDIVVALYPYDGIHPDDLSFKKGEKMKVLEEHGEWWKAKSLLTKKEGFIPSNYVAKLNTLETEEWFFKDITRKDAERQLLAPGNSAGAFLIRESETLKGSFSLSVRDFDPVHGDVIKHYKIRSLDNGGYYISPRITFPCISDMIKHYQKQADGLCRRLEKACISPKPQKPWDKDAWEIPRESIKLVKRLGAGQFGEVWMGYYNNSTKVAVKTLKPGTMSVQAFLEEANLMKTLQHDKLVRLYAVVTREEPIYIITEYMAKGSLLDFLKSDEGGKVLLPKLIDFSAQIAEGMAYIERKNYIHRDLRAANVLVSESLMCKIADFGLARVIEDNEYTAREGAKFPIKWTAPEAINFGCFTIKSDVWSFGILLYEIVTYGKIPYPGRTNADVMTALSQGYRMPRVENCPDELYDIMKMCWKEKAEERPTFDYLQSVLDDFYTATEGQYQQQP
- Method Description: HotSpot in vitro kinase radiometric assay
- Format: biochemical
- Condition Parameters: LYN B; 10uM; ATP 20 uM; Data 1, Data 2; read-out: % Enzyme Activity (relative to DMSO controls)
Endpoint Name: remaining activity at 10 µM (%)
# unit: % | format: bare number

[Q] Tell me remaining activity at 10 µM reported for CCc1cc(-c2[nH]nc(C)c2-c2ccc3c(c2)OCCO3)c(O)cc1O
[A] 100

[Q] Tell me remaining activity at 10 µM reported for C[C@@H]1C[C@H]2O[C@@H]2/C=C\C=C\C(=O)Cc2c(Cl)c(O)cc(O)c2C(=O)O1
[A] 114

[Q] Tell me remaining activity at 10 µM reported for CC(C)c1cc(C(=O)N2Cc3ccc(CN4CCN(C)CC4)cc3C2)c(O)cc1O
[A] 110

[Q] Tell me remaining activity at 10 µM reported for COC1=C2C[C@@H](C)C[C@H](OC)[C@H](O)[C@@H](C)/C=C(\C)[C@H](OC(N)=O)[C@@H](OC)/C=C\C=C(/C)C(=O)NC(=CC1=O)C2=O
[A] 111

[Q] Tell me remaining activity at 10 µM reported for CCNC(=O)c1noc(-c2cc(Cl)c(O)cc2O)c1-c1ccc(OC)cc1
[A] 105

====

- Target Or Test System: 382 unique human kinases (Homo sapiens, UniProt Q9NYL2)
- Sequence (Q9NYL2 whole entry): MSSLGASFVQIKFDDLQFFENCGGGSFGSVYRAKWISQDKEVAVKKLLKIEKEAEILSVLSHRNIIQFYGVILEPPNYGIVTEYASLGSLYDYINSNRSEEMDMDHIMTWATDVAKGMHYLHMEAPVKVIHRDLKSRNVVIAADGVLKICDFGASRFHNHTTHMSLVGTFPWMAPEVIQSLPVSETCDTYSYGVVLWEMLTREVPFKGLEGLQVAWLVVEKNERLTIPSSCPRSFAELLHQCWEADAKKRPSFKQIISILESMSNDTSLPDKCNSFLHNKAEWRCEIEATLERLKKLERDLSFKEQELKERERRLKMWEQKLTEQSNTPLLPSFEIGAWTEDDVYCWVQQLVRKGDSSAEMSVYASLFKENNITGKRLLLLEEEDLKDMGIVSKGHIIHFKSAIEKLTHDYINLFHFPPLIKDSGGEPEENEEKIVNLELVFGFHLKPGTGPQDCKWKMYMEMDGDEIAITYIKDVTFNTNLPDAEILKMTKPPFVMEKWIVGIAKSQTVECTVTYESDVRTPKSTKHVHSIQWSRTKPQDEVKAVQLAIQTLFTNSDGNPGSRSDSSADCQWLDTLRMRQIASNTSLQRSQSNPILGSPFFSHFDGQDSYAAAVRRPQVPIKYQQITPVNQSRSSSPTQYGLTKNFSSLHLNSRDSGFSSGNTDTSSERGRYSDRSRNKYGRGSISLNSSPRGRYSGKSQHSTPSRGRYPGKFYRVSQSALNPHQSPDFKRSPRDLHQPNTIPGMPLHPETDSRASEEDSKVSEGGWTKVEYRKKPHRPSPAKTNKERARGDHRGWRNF
Endpoint Name: IC50 (nM)
# unit: nM | format: bare number

[Q] Tell me IC50 reported for O=C1Nc2ccc(I)cc2/C1=C/c1cc(Br)c(O)c(Br)c1
[A] 2620

====

- Target Or Test System: ABL2/ARG (Homo sapiens, UniProt P42684)
- Construct: purchased Reaction Biology (HotSpot contract assay)
- Method Description: HotSpot in vitro kinase radiometric assay
- Format: biochemical
- Condition Parameters: radiometric 10-point concentration-response, n = 3; read-out: in vitro biochemical IC50, ABL2
Endpoint Name: pIC50
Kindly note that pIC50 refers to -log10 of the concentration in mol/L and answer with the value alone.

[Q] Tell me pIC50 reported for CC(C)c1cc(-c2n[nH]c(=O)n2-c2ccc3c(ccn3C)c2)c(O)cc1O
[A] 6.67

[Q] Tell me pIC50 reported for CCNC(=O)c1noc(-c2cc(C(C)C)c(O)cc2O)c1-c1ccc(CN2CCOCC2)cc1
[A] 5.36

Source of measurements: paper PMC8550792
